Test system: NCI-N87
Experiment: Antiproliferative activity against human N87 cells
Type: functional, cell-based
Readings of IC50 for the listed molecules

structure.smiles.string: C[C@H](c1ccccc1)n1ncc2cc(Nc3ncnn4ccc(COC[C@@H]5CNCCO5)c34)ccc21
IC50 / nM: 660
--
structure.smiles.string: Fc1cccc(Cn2ncc3cc(Nc4ncnn5ccc(COC[C@H]6CCCNC6)c45)ccc32)c1
IC50 / nM: 980
--
structure.smiles.string: Fc1cccc(Cn2ncc3cc(Nc4ncnn5ccc(COCC6CCNCC6)c45)ccc32)c1
IC50 / nM: 720
